B1: Azoarcus group I ribozyme (parent)
chain: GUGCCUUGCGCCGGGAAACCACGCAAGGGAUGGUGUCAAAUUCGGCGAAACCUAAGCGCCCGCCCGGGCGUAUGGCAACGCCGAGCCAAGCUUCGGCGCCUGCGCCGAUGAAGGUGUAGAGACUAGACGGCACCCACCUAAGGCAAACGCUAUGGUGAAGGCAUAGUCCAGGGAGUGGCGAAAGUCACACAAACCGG

# Variants of: B1
# protocol-summary: reverse-splicing fitness (ratio to wild type); higher = more active; in vitro selection; Mg2+ level not given
Can you tell me reverse-splicing fitness for the items I'm about to list?
Numbers only.

These solved cases illustrate the format of a correct answer.
# mut, reverse-splicing fitness
data = [
    ("C82A A111U A145U C150G C169G U176G", 0.00651),
    ("C82A A120U C150G C169A U176C", 0.00411),
    ("C82A A111U A120U C150A U176G", 0.0037),
    ("C82A A111U A120U C150G C169G U176C", 0.00289),
    ("A111C A120G C150G C169G U176C", 0.00473),
    ("C82G A120G C150A C169A U176G", 0.00604),
    ("A111U A120C C169G", 0.0098),
    ("C82A A111G A120C C169G U176A", 0.0206),
    ("A120U A145C C150G C169U", 0.0478),
    ("C82U A111U A120U A145C C150U C169A", 0.0022),
]

Report reverse-splicing fitness for each item below.
1. C82G A145G C150A U176G
2. C82U A120C A145U C150U C169G U176C
3. A111C A120G A145G C150A C169A U176A
4. A120U A145U C150G C169A U176A
5. A111G A145C C150A C169G
6. C82A A111U A120C A145U C150A C169A U176A
7. C82A A111C A120C C150A C169A U176G

Result:
0.0244
0.00724
0.0174
0.00344
0.0111
0.0231
0.00827

Data origin, for the record: the RNAGym collection of RNA variant scans (doi:10.1093/molbev/msab373)
